# System: NCI-H460
# protocol description: Growth inhibition of human NCI-H460 cells incubated for 48 hrs by sulforhodamine B assay
# Type: functional
# protocol conditions: NCI-H460, 48 h, read-out: pGI50 (converted)
measure name: GI50 (nM)
Provide only the numeric value, understood in nM.

# value lookup — system NCI-H460, readout GI50, item Fc1ccc(-c2nc(Nc3ccc(-c4nc5ccccc5[nH]4)cc3)nc(N3CCOCC3)n2)cc1 2450

Queued: Clc1ccc(-c2nc(Nc3ccc(-c4nc5ccccc5[nH]4)cc3)nc(N3CCOCC3)n2)cc1 224

Same question for c1ccc(-c2nc(Nc3ccc(-c4nc5ccccc5[nH]4)cc3)nc(N3CCOCC3)n2)cc1 please. 813

Please answer likewise for c1ccc2[nH]c(-c3ccc(Nc4nc(N5CCCCC5)nc(N5CCOCC5)n4)cc3)nc2c1 2450

---

Would you mind telling me the reported CC50 of each entry?
# protocol description: Growth inhibition of human OVCAR8 cells incubated for 48 hrs by sulforhodamine B assay
# Assay type: functional
# protocol conditions: OVCAR-8, 48 h, read-out: LC50 (the source's name)
Write the answer as a number in µM, unit excluded.

I am curious: what CC50 value has been reported for c1ccc(-c2nc(Nc3ccc(-c4nc5ccccc5[nH]4)cc3)nc(N3CCOCC3)n2)cc1 ? 6.79

Similarly, Clc1ccc(-c2nc(Nc3ccc(-c4nc5ccccc5[nH]4)cc3)nc(N3CCOCC3)n2)cc1 ? 6.09

---

# System: MDA-MB-435
# protocol description: Growth inhibition of human MDA-MB-435 cells incubated for 48 hrs by sulforhodamine B assay
# Format: functional
# protocol conditions: MDA-MB-435, 48 h, read-out: pTGI (converted)
measure name: TGI (µM)
The response must be a number in µM with no trailing unit.

What does the record list as TGI for Clc1ccc(-c2nc(Nc3ccc(-c4nc5ccccc5[nH]4)cc3)nc(N3CCOCC3)n2)cc1 ? 1.86

Please answer likewise for c1ccc(-c2nc(Nc3ccc(-c4nc5ccccc5[nH]4)cc3)nc(N3CCOCC3)n2)cc1 3.31

Try this molecule next: c1ccc2[nH]c(-c3ccc(Nc4nc(N5CCCCC5)nc(N5CCOCC5)n4)cc3)nc2c1 4.57

Cool, now Fc1ccc(-c2nc(Nc3ccc(-c4nc5ccccc5[nH]4)cc3)nc(N3CCOCC3)n2)cc1 4.07

---

# Test system: SK-MEL-5
# protocol description: Growth inhibition of human SK-MEL-5 cells assessed as cell growth at 10^-4 M incubated for 48 hrs by sulforhodamine B assay
# Assay type: functional
# protocol conditions: SK-MEL-5, 48 h, read-out: Activity
Field: growth at 100 µM. Provide a value for each of the compounds that follow.
Respond numerically; units are % and should not be typed.

// growth at 100 µM lookup, key: c1ccc2[nH]c(-c3ccc(Nc4nc(N5CCCCC5)nc(N5CCOCC5)n4)cc3)nc2c1 -95

Field entry: Fc1ccc(-c2nc(Nc3ccc(-c4nc5ccccc5[nH]4)cc3)nc(N3CCOCC3)n2)cc1 -90

Also need c1ccc(-c2nc(Nc3ccc(-c4nc5ccccc5[nH]4)cc3)nc(N3CCOCC3)n2)cc1 , thanks. -91

How about Clc1ccc(-c2nc(Nc3ccc(-c4nc5ccccc5[nH]4)cc3)nc(N3CCOCC3)n2)cc1 ? -51

---

# protocol description: Growth inhibition of human HOP62 cells assessed as cell growth at 10^-5 M incubated for 48 hrs by sulforhodamine B assay
# Type: functional
# protocol conditions: HOP-62, 48 h, read-out: Activity
measure name: growth at 10 µM (%)
Please reply with the bare figure in % and do not write the unit itself.

What does the data say about its growth at 10 µM? Entry: Clc1ccc(-c2nc(Nc3ccc(-c4nc5ccccc5[nH]4)cc3)nc(N3CCOCC3)n2)cc1 -77

Now the molecule c1ccc(-c2nc(Nc3ccc(-c4nc5ccccc5[nH]4)cc3)nc(N3CCOCC3)n2)cc1 -74

Record: Fc1ccc(-c2nc(Nc3ccc(-c4nc5ccccc5[nH]4)cc3)nc(N3CCOCC3)n2)cc1 -34

Also, c1ccc2[nH]c(-c3ccc(Nc4nc(N5CCCCC5)nc(N5CCOCC5)n4)cc3)nc2c1 please. -52

---

Please go through the items and note down their growth at 10 µM.
# Tested on: SK-MEL-28
# protocol description: Growth inhibition of human SK-MEL-28 cells assessed as cell growth at 10^-5 M incubated for 48 hrs by sulforhodamine B assay
# Format: functional
# protocol conditions: SK-MEL-28, 48 h, read-out: Activity
State the value with its unit after it.

Give SK-MEL-28 growth at 10 µM for Clc1ccc(-c2nc(Nc3ccc(-c4nc5ccccc5[nH]4)cc3)nc(N3CCOCC3)n2)cc1 -81%

Same question, Fc1ccc(-c2nc(Nc3ccc(-c4nc5ccccc5[nH]4)cc3)nc(N3CCOCC3)n2)cc1 this time -49%

// next record c1ccc2[nH]c(-c3ccc(Nc4nc(N5CCCCC5)nc(N5CCOCC5)n4)cc3)nc2c1 -57%

One more compound: c1ccc(-c2nc(Nc3ccc(-c4nc5ccccc5[nH]4)cc3)nc(N3CCOCC3)n2)cc1 -86%

---

# system name: Albumin (Bos taurus)
# Sequence (P02769 whole entry): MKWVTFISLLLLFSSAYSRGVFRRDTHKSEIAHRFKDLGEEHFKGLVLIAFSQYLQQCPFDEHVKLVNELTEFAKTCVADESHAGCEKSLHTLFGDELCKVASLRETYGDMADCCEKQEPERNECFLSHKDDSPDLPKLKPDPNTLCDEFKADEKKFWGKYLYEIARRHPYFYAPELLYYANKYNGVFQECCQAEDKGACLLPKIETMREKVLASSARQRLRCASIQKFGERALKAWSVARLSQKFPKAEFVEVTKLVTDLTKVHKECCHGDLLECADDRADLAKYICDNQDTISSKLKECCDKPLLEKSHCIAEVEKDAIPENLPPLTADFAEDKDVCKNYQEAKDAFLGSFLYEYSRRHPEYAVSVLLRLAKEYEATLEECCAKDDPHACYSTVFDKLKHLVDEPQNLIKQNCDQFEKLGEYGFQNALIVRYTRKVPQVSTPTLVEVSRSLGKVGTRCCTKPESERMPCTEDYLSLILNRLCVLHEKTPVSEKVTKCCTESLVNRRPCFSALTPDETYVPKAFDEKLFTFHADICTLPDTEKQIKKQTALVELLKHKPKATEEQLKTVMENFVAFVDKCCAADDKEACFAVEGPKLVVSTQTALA
# protocol description: Binding affinity to bovine serum albumin assessed as binding constant in absorption spectra by Benesie-Hildebrand plot analysis
# Type: ADME
# protocol conditions: cattle, isolated protein
measure name: K (×10⁴ /M)
Kindly provide the numeric value in ×10⁴ /M only, without the unit symbol.

Query: K; subject: c1ccc2[nH]c(-c3ccc(Nc4nc(N5CCOCC5)nc(N5CCOCC5)n4)cc3)nc2c1 7

Now consider c1ccc(CNc2nc(Nc3ccc(-c4nc5ccccc5[nH]4)cc3)nc(N3CCOCC3)n2)cc1 and answer again. 1.2

Next entry: OCCNc1nc(Nc2ccc(-c3nc4ccccc4[nH]3)cc2)nc(N2CCOCC2)n1 9.5

Continue with c1ccc2[nH]c(-c3ccc(Nc4nc(NCCN5CCOCC5)nc(N5CCOCC5)n4)cc3)nc2c1 8.4

---

Kindly state growth at 10 µM for each of the entries shown.
# protocol description: Growth inhibition of human LOXIMVI cells assessed as cell growth at 10 uM incubated for 48 hrs by sulforhodamine B assay
# Type: functional
# protocol conditions: LOX IMVI, read-out: Activity
Report as a plain number; the unit % is understood.

May I ask what growth at 10 µM has been recorded for Fc1ccc(-c2nc(Nc3ccc(-c4nc5ccccc5[nH]4)cc3)nc(N3CCOCC3)n2)cc1 ? -75.6

Try the compound c1ccc2[nH]c(-c3ccc(Nc4nc(N5CCCCC5)nc(N5CCOCC5)n4)cc3)nc2c1 -77.1

What do you get for Clc1ccc(-c2nc(Nc3ccc(-c4nc5ccccc5[nH]4)cc3)nc(N3CCOCC3)n2)cc1 ? -93

What do you get for c1ccc(-c2nc(Nc3ccc(-c4nc5ccccc5[nH]4)cc3)nc(N3CCOCC3)n2)cc1 ? -89

---

Consider the following molecules; for each one, report its growth at 10 µM.
# Tested on: KM12
# protocol description: Growth inhibition of human KM12 cells assessed as cell growth at 10 uM incubated for 48 hrs by sulforhodamine B assay
# Format: functional
# protocol conditions: KM12, 48 h, read-out: Activity
Report the value in % with no unit label.

Please provide the recorded growth at 10 µM for Fc1ccc(-c2nc(Nc3ccc(-c4nc5ccccc5[nH]4)cc3)nc(N3CCOCC3)n2)cc1 , tested on KM12. 12.4

Now give it for c1ccc(-c2nc(Nc3ccc(-c4nc5ccccc5[nH]4)cc3)nc(N3CCOCC3)n2)cc1 too. -76.6

Would you mind doing c1ccc2[nH]c(-c3ccc(Nc4nc(N5CCCCC5)nc(N5CCOCC5)n4)cc3)nc2c1 as well? 14.3

What do we get for Clc1ccc(-c2nc(Nc3ccc(-c4nc5ccccc5[nH]4)cc3)nc(N3CCOCC3)n2)cc1 ? -91.3

---

# protocol description: Growth inhibition of human OVCAR3 cells incubated for 48 hrs by sulforhodamine B assay
# Type: functional
# protocol conditions: OVCAR-3, 48 h, read-out: pTGI (converted)
measure name: TGI
Record the result as a number with its unit.

Form field: reported TGI of Fc1ccc(-c2nc(Nc3ccc(-c4nc5ccccc5[nH]4)cc3)nc(N3CCOCC3)n2)cc1 3.89 µM

Moving on to the next compound: Clc1ccc(-c2nc(Nc3ccc(-c4nc5ccccc5[nH]4)cc3)nc(N3CCOCC3)n2)cc1 1.38 µM

Consider next the compound c1ccc(-c2nc(Nc3ccc(-c4nc5ccccc5[nH]4)cc3)nc(N3CCOCC3)n2)cc1 in the same way. 2.95 µM

Could you do the same for c1ccc2[nH]c(-c3ccc(Nc4nc(N5CCCCC5)nc(N5CCOCC5)n4)cc3)nc2c1 , please? 6.17 µM

---

# protocol description: Growth inhibition of human HOP62 cells assessed as cell growth at 10^-7 M incubated for 48 hrs by sulforhodamine B assay
# Assay type: functional
# protocol conditions: HOP-62, 48 h, read-out: Activity
Exercise: state measured growth at 0.1 µM for each of the compounds provided.
Quick note: unit goes after the number.

Could you share which growth at 0.1 µM value was measured for Clc1ccc(-c2nc(Nc3ccc(-c4nc5ccccc5[nH]4)cc3)nc(N3CCOCC3)n2)cc1 ? 93%

And what about the compound c1ccc2[nH]c(-c3ccc(Nc4nc(N5CCCCC5)nc(N5CCOCC5)n4)cc3)nc2c1 ? 96%

Record: c1ccc(-c2nc(Nc3ccc(-c4nc5ccccc5[nH]4)cc3)nc(N3CCOCC3)n2)cc1 93%

What do you have for Fc1ccc(-c2nc(Nc3ccc(-c4nc5ccccc5[nH]4)cc3)nc(N3CCOCC3)n2)cc1 ? 97%

Measured values drawn from ChEMBL document CHEMBL3808334 for this set.
